- assay method text: pKa measurement (Sirius T3, Yasuda-Shedlovsky extrapolation)
- Format: physicochemical
- condition info: Sirius T3, MeOH and KCl solution, pH 2 to 12, Yasuda-Shedlovsky extrapolation
endpoint name: pKa
One number for each entry.

Qu. Consider the molecule CCc1cc(F)c2nc(N3CCC(NC4CCOCC4)CC3)c(-c3nc(C)no3)c(C)c2c1.Cl [HCl salt Type A] . State its measured pKa.
Ans. 8.68

====

- assay method text: Log D7.6 shake-flask (octanol/phosphate buffer) and Log P calculation
- Type: physicochemical
- condition info: calculated: Log D7.6 + lg[1+10^(pKa-pH)], pH 7.6
endpoint name: logP

Qu. Consider the molecule CCc1cc(F)c2nc(N3CCC(NC4CCOCC4)CC3)c(-c3nc(C)no3)c(C)c2c1.Cl [HCl salt Type A] . State its measured logP.
Ans. 4

====

- assay method text: Solubility measurement in organic solvents at 25° C. for 24 hours
- Format: physicochemical
- condition info: 25 °C, organic solvent or mixture, thermodynamic from solid; polar solvents (DMSO and MeOH)
endpoint name: solubility at 24 h

Qu. Consider the molecule CCc1cc(F)c2nc(N3CCC(NC4CCOCC4)CC3)c(-c3nc(C)no3)c(C)c2c1.Cl [HCl salt Type A] . State its measured solubility at 24 h.
Ans. > 24.9 mg/mL

====

- assay method text: Solubility measurement in organic solvents at 25° C. for 24 hours
- Format: physicochemical
- condition info: organic solvent or mixture, thermodynamic from solid; Toluene, 25° C., 24 hrs
endpoint name: solubility at 24 h
Record the result as number plus unit.

Qu. Consider the compound CCc1cc(F)c2nc(N3CCC(NC4CCOCC4)CC3)c(-c3nc(C)no3)c(C)c2c1.Cl [HCl salt Type A] . State its measured solubility at 24 h.
Ans. 8.8 µg/mL

====

- assay method text: Solubility measurement in organic solvents at 25° C. for 24 hours
- Format: physicochemical
- condition info: organic solvent or mixture, thermodynamic from solid; DMSO, 25° C., 24 hrs
endpoint name: solubility at 24 h (mg/mL)
One number for each entry, in mg/mL.

Qu. Consider the molecule CCc1cc(F)c2nc(N3CCC(NC4CCOCC4)CC3)c(-c3nc(C)no3)c(C)c2c1.Cl [HCl salt Type A] . State its measured solubility at 24 h.
Ans. 33.5

====

- assay method text: Solubility measurement in organic solvents at 25° C. for 24 hours
- Assay type: physicochemical
- condition info: methanol, organic solvent or mixture, thermodynamic from solid; MeOH, 25° C., 24 hrs
endpoint name: solubility at 24 h (mg/mL)
Give bare numbers, in mg/mL.

Qu. Consider the molecule CCc1cc(F)c2nc(N3CCC(NC4CCOCC4)CC3)c(-c3nc(C)no3)c(C)c2c1.Cl [HCl salt Type A] . State its measured solubility at 24 h.
Ans. 24.9

====

- assay method text: Solubility measurement in organic solvents at 25° C. for 24 hours
- Format: physicochemical
- condition info: organic solvent or mixture, thermodynamic from solid; Heptane, 25° C., 24 hrs
endpoint name: solubility at 24 h (µg/mL)
One number for each entry, in µg/mL.

Qu. Consider the molecule CCc1cc(F)c2nc(N3CCC(NC4CCOCC4)CC3)c(-c3nc(C)no3)c(C)c2c1.Cl [HCl salt Type A] . State its measured solubility at 24 h.
Ans. 0.8

====

- assay method text: Solubility measurement in organic solvents at 25° C. for 24 hours
- Assay type: physicochemical
- condition info: 25 °C, organic solvent or mixture, thermodynamic from solid; nonpolar solvents (hexane, heptane and toluene)
endpoint name: solubility at 24 h

Qu. Consider the compound CCc1cc(F)c2nc(N3CCC(NC4CCOCC4)CC3)c(-c3nc(C)no3)c(C)c2c1.Cl [HCl salt Type A] . State its measured solubility at 24 h.
Ans. < 88 µg/mL
